# system: SNM1A (Homo sapiens)
# Sequence (Q6PJP8 676-1040): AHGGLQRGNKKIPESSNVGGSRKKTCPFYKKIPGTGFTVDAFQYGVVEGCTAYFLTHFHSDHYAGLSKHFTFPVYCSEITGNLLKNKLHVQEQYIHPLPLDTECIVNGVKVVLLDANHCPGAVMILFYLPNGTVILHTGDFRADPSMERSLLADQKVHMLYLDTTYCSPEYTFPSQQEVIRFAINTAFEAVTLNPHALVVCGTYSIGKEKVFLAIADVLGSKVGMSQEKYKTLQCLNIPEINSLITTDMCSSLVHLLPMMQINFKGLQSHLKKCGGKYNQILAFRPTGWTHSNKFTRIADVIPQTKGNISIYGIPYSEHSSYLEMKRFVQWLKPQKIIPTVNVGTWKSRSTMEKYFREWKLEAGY
# method: real-time fluorescence-based nuclease assay, SNM1A
# Assay type: biochemical
# Parameters: DNA encoding for the MBL and β-CASP domains of SNM1A (aa 676–1040) was cloned into the baculovirus transfer vector pFB-LIC-Bse; inferred from vector pFB-LIC-Bse and the IMAC purification; made in house; host or cells: Sf9 insect cells (baculovirus)
# condition notes: real-time fluorescence-based nuclease assay; resynthesised compounds; read-out: SNM1A IC50
The entries below are paired with their reported pIC50.
Just so you know, pIC50 here is -log10 of the concentration in molar units; reply with that number alone.

> print(dat)
                                   compound  obs.value
1  C=CCNc1nc(NC(CO)C(=O)NO)c2cc(Cl)ccc2n1 (centres unmarked)       5.39

Prompt: Output reported pIC50 of the compound `C[C@H](Nc1nc(N(C)C)nc2ccc(F)cc12)C(=O)NO` on SNM1A (Homo sapiens).
Completion: 4.89

Prompt: Give the observed pIC50 of `C=CCNc1nc(N[C@H](C)C(=O)NO)c2cc(Cl)ccc2n1` for SNM1A (Homo sapiens).
Completion: 5.66

Prompt: Please report the measured pIC50 for `C=CCNc1nc(NCC(=O)NO)c2cc(Cl)ccc2n1` tested on SNM1A (Homo sapiens).
Completion: 4.77

Cited source: paper PMC11134331
